Catalogue of compounds with associated melting point
Reply with a number, then the unit it belongs to.

COMPOUND	READOUT TYPE	VALUE
COc1cc2c(N3CC[S+]([O-])CC3)nc(-c3ccc(Cl)cc3)nc2c(OC)c1OC [Example 68]	melting point	198 °C
COc1cc2nc(-c3ccc(Cl)cc3)nc(N3CCN(Cc4ccccc4)CC3)c2cc1OC.Cl.Cl	melting point	225 °C
COc1cc2c(N3CCOCC3)nc(-c3ccc(Cl)cc3)nc2c(OC)c1OC [Example 55]	melting point	153 °C

Given item COc1cc2c(N3CCN(CC(=O)N4CCOCC4)CC3)nc(-c3ccc(Cl)cc3)nc2c(OC)c1OC [Example 12] , the value recorded as its melting point is 177 °C

Given item COc1cc2c(N3CCOCC3)nc(-c3cc(C(F)(F)F)cc(C(F)(F)F)c3)nc2c(OC)c1OC [Example 64] , the value recorded as its melting point is 170 °C

Given item COc1cc2nc(-c3ccc(Cl)cc3)nc(NC3CCN(Cc4ccccc4)CC3)c2cc1OC [Example 22] , the value recorded as its melting point is 252 °C

Given item COc1cc2nc(-c3ccc(C)cc3)nc(N(C)Cc3cccnc3)c2cc1OC [Example 97] , the value recorded as its melting point is 165 °C

Given item COc1cc2nc(-c3ccc(Cl)cc3)nc(NC3CCCC3)c2cc1OC [Example 92] , the value recorded as its melting point is 231 °C

Given item COc1cc2nc(-c3ccc(C)cc3)nc(NCc3cccnc3)c2cc1OC [Example 38] , the value recorded as its melting point is 239 °C

Given item COc1cc2c(NCCCn3ccnc3)nc(-c3ccc(Cl)cc3)nc2c(OC)c1OC [Example 59] , the value recorded as its melting point is 245 °C

Given item COc1cc2c(NCc3cccnc3)nc(-c3ccc(Cl)cc3)nc2c(OC)c1OC [Example 54] , the value recorded as its melting point is 262 °C

Given item COc1cc2nc(-c3ccc(C(F)(F)F)cc3)nc(N3CCOCC3)c2cc1OC [Example 50] , the value recorded as its melting point is 207 °C

Given item COc1cc2c(N3CCSCC3)nc(-c3ccc(Cl)cc3)nc2c(OC)c1OC [Example 66] , the value recorded as its melting point is 174 °C

Given item COc1cc2c(NCc3cccnc3)nc(-c3cc(C(F)(F)F)cc(C(F)(F)F)c3)nc2c(OC)c1OC [Example 65] , the value recorded as its melting point is 229 °C

Given item COc1cc2nc(-c3ccc(C)cc3)nc(NCCN(C(C)C)C(C)C)c2cc1OC [Example 40] , the value recorded as its melting point is 81 °C

Given item COc1cc2nc(-c3ccc(Cl)cc3)nc(N3CCOCC3)c2cc1OC [Example 48] , the value recorded as its melting point is 178 °C

Given item COc1cc2c(N3CCS(=O)(=O)CC3)nc(-c3ccc(Cl)cc3)nc2c(OC)c1OC [Example 69] , the value recorded as its melting point is 241 °C

* * *

READOUT TYPE: melting point (°C)
Please state the figure in °C; there is no need to write the unit.

Take a look at these entries with their results.
COc1cc2nc(-c3ccc(C)cc3)nc(N3CCN(C)CC3)c2cc1OC 166
COc1cc2nc(-c3ccc(Cl)cc3)nc(N(C)C)c2cc1OC 148
COc1ccccc1N1CCN(c2nc(-c3ccc(Cl)cc3)nc3c(OC)c(OC)c(OC)cc23)CC1 157
COc1cc2nc(-c3ccc(C)cc3)nc(NC3CCCC3)c2cc1OC 101
COc1cc2nc(-c3ccc(C(F)(F)F)cc3)nc(N3CCN(C)CC3)c2cc1OC 139
COc1cc2nc(-c3ccc(C)cc3)nc(N3CCSCC3)c2cc1OC 213

Given item COc1cc2nc(-c3ccc(C)cc3)nc(N3CCOCC3)c2cc1OC , the value recorded as its melting point is 200

Given item COc1cc2nc(-c3ccc(Cl)cc3)nc(NC3CC(C)(C)NC(C)(C)C3)c2cc1OC , the value recorded as its melting point is 231

Given item COc1cc2c(N3CCN(CCO)CC3)nc(-c3ccc(Cl)cc3)nc2c(OC)c1OC , the value recorded as its melting point is 175

Given item COc1cc2nc(-c3ccc(Cl)cc3)nc(N3CCN(CC(=O)NC(C)C)CC3)c2cc1OC , the value recorded as its melting point is 187

Given item COc1cc2nc(-c3ccc(C)cc3)nc(NCCc3ccccn3)c2cc1OC , the value recorded as its melting point is 204

Given item COc1cc2nc(-c3ccc(Cl)cc3)nc(N(C)CCO)c2cc1OC , the value recorded as its melting point is 129

Given item CCCN(CCC)c1nc(-c2ccc(Cl)cc2)nc2cc(OC)c(OC)cc12 , the value recorded as its melting point is 223

Given item COc1cc2nc(-c3ccc(Cl)cc3)nc(NCCCN3CCCC3=O)c2cc1OC , the value recorded as its melting point is 210
